Overview of reported %max across a group of compounds:
# Target or system: Glucose-dependent insulinotropic receptor (Mus musculus)
# Sequence (whole entry): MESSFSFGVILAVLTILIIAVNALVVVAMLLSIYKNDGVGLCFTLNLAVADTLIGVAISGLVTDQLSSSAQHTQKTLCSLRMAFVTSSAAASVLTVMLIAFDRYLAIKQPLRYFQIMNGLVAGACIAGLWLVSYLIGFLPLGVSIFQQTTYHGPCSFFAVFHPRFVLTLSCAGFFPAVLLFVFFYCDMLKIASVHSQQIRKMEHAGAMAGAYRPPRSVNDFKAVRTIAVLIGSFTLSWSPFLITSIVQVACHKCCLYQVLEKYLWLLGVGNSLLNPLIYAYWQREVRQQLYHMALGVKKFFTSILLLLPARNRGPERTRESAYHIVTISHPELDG
# Assay name: Agonist activity at mouse GPR119 expressed in HEK293 cells assessed as cAMP accumulation after 30 mins by fluorescence analysis
# Type: functional, cell-based
Give just the numeric value; % need not be written.

Answered cases to consult:
Compound: Cc1c(Nc2ccc(C#N)cc2Cl)ncnc1OC1CC2COCC(C1)N2C(=O)OC(C)(C)C (stereo in doubt; 14)
Target or system: Glucose-dependent insulinotropic receptor (Mus musculus)
%max, %: 34
//
Compound: Cc1c(Nc2ccc(C#N)cc2Cl)ncnc1OC1CC2COCC(C1)N2C(=O)OC(C)(C)C (stereo in doubt; 15)
Target or system: Glucose-dependent insulinotropic receptor (Mus musculus)
%max, %: 57
//
Compound: Cc1c(Nc2ccc(C#N)cc2Cl)ncnc1OC1C2COCC1CN(C(=O)OC(C)(C)C)C2 (stereo in doubt; 19)
Target or system: Glucose-dependent insulinotropic receptor (Mus musculus)
%max, %: 110
//
Compound: Cc1c(Nc2ccc(C#N)cc2Cl)ncnc1OC1C2COCC1CN(C(=O)OC1(C)CC1)C2 (stereo not given)
Target or system: Glucose-dependent insulinotropic receptor (Mus musculus)
%max, %: 102

Next, consider the following compound.
Exercise: Which %max value is on record for Cc1c(Nc2ccc(C#N)cc2Cl)ncnc1OC1CC2COCC(C1)N2S(=O)(=O)C1CC1 (stereo not given) ?
Solution: 100

---

Known AUC(0-t) at 6 h of a selection of compounds
# Assay name: AUC (0 to 6 hrs) in Sprague-Dawley rat plasma at 10 mg/kg, po
# Assay type: ADME, organism-based
# Set-up: time < 6 hr, dose 10 mg/kg, route oral
Respond numerically; units are µM·h and should not be typed.

Exercise: I am curious: what AUC(0-t) at 6 h value has been reported for CC1(OC(=O)N2CC3COCC(C2)C3Oc2cc(Nc3ccc(C#N)cc3Cl)ncn2)CC1 (stereo unspecified) ?
Solution: 1.19

Exercise: Next up: COc1c(Nc2ccc(C#N)cc2Cl)ncnc1OC1C2COCC1CN(C(=O)OC1(C)CC1)C2 (stereo unspecified)
Solution: 8.23

Exercise: Try this compound next: Cc1c(Oc2ccc(C#N)cc2Cl)ncnc1OC1C2COCC1CN(C(=O)OC1(C)CC1)C2 (stereo unspecified)
Solution: 1.49

Exercise: Here is the next compound: COc1c(Nc2ccc(C#N)cc2F)ncnc1OC1C2COCC1CN(C(=O)OC1(C)CC1)C2 (stereo unspecified)
Solution: 1.43

Exercise: Also check Cc1c(Nc2ccc(C#N)cc2Cl)ncnc1OC1C2COCC1CN(C(=O)OC1(C)CC1)C2 (stereo unspecified)
Solution: 4.98

Exercise: Follow-up item: Cc1c(Nc2ccc(S(C)(=O)=O)cc2F)ncnc1OC1CC2COCC(C1)N2C(=O)OC1(C)CC1 (stereo unspecified)
Solution: 2.4

---

# Target or system: Glucose-dependent insulinotropic receptor (Mus musculus)
# Assay name: Agonist activity at mouse GPR119 expressed in HEK293 cells assessed as cAMP accumulation after 30 mins by fluorescence analysis
Hi! Could you tag entries with EC50 below 300 nM as MET, and those at or above as NOT MET? Much appreciated.

A selection of reference data follows.
Compound: Cc1c(Oc2ccc(C#N)cc2Cl)ncnc1OC1C2COCC1CN(C(=O)OC1(C)CC1)C2 (stereo not given)
Classification: MET
--
Compound: Cc1c(Nc2ccc(C#N)cc2Cl)ncnc1OC1C2COCC1CN(S(=O)(=O)C1CC1)C2 (stereo in doubt; 17)
Classification: NOT MET
--
Compound: Cc1c(Nc2ccc(C#N)cc2Cl)ncnc1OC1CC2COCC(C1)N2C(=O)OC(C)(C)C (stereo in doubt; 14)
Classification: MET
--
Compound: Cc1c(Nc2ccc(C#N)cc2Cl)ncnc1OC1C2COCC1CN(C(=O)OC1(C)CC1)C2 (stereo not given)
Classification: MET

Exercise: Below 300 nM on EC50? Entry CC1(OC(=O)N2CC3COCC(C2)C3Oc2cc(Nc3ccc(C#N)cc3Cl)ncn2)CC1 (stereo not given)
Solution: MET

---

Each entry below lists one item and its recorded pEC50 value.
# Target or system: Glucose-dependent insulinotropic receptor (Mus musculus)
# Assay name: Agonist activity at mouse GPR119 expressed in HEK293 cells assessed as cAMP accumulation after 30 mins by fluorescence analysis
Units for pEC50: none; it is -log10 of a concentration expressed in mol/L.

Molecule: COc1c(Nc2ccc(C#N)cc2F)ncnc1OC1C2COCC1CN(C(=O)OC1(C)CC1)C2 (centres undefined)
pEC50: 7.33
--
Molecule: Cc1c(Nc2ccc(C#N)cc2Cl)ncnc1OC1CC2COCC(C1)N2C(=O)OC(C)(C)C (stereo in doubt; 15)
pEC50: 7.00
--
Molecule: Cc1c(Nc2ccc(S(C)(=O)=O)cc2Cl)ncnc1OC1CC2COCC(C1)N2C(=O)OC(C)(C)C (centres undefined)
pEC50: 6.72

Exercise: Consider the molecule COc1c(Nc2ccc(C#N)cc2Cl)ncnc1OC1C2COCC1CN(C(=O)OC1(C)CC1)C2 (centres undefined) and give its measured pEC50.
Solution: 7.37

---

# Test system: Plasma
# Assay name: Plasma concentration in C57B1/6NCrl mouse at 1 mg/kg, po
# Format: ADME, organism-based
# Condition summary: in vivo
Assay endpoint: concentration (nM)
Report as a plain number; the unit nM is understood.

Exercise: Dear colleague, I am looking for the recorded concentration of the following compound: COc1c(Nc2ccc(C#N)cc2Cl)ncnc1OC1C2COCC1CN(C(=O)OC1(C)CC1)C2 (stereo unspecified)
Solution: 220
